- Assay Procedure: protein stability index of a GFP-peptide fusion (yeast GPS) (PSI 1-4); higher = more stable; sorted into four equal gates, so the index is relative within each strain
- Study Conditions: pdr5∆
Please use 1 (yes) whenever protein stability index is not below 3, and 0 (no) whenever it is.

{"Seq": "LLENPNCFFDVIVPQIV [DIS3]", "Label": "1 (yes)"}
{"Seq": "NNDGSYGLFLKYHKEQF [SRB8]", "Label": "0 (no)"}
{"Seq": "AIGYEPLSLTHRDKNKM [DIS3]", "Label": "0 (no)"}
{"Seq": "TPANTNNSTSNANTVFS [SWI1]", "Label": "0 (no)"}
{"Seq": "KKMMNTSDSESTLYKYL [SWI3]", "Label": "0 (no)"}
{"Seq": "VSPNAAPRQEISEEETT [YAR002W/NUP60]", "Label": "0 (no)"}
{"Seq": "AVATPKAEVTQLSNGIV [COR1]", "Label": "1 (yes)"}
{"Seq": "LEFARITPMNDDQCMLI [SIN4]", "Label": "0 (no)"}
{"Seq": "KKRIRLPSEERIQKIIS [YIL149C/MLP2]", "Label": "0 (no)"}
{"Seq": "PTKTLTTKERKKSRLGN [PRP8]", "Label": "0 (no)"}
{"Seq": "IGIPVNKASLAQYEVLA [QCR2]", "Label": "0 (no)"}
{"Seq": "LKERAKNISSQLDSKLM [YGR119C/NUP57]", "Label": "0 (no)"}
{"Seq": "HFPINVNIVEKDGAKFI [RPL9A]", "Label": "0 (no)"}
{"Seq": "LNLPLQFSLPNGDNSTT [SNF12]", "Label": "0 (no)"}
{"Seq": "HNGWVTSLATSAGQPNL [ASC1]", "Label": "0 (no)"}
{"Seq": "GLMKSYKIPKVMKDIYK [ESC2]", "Label": "1 (yes)"}
{"Seq": "VKEIVLPLFYDLLNAAS [IRR1]", "Label": "0 (no)"}
{"Seq": "LVDSLATFTSIELTSYE [RPN7]", "Label": "0 (no)"}
